TEST_SYSTEM: T1, recombinant human Tau monomer, 2N4R isoform (amino acids 2-441) (human, UniProt P10636-8 2-441)
T1 construct: range 2-441; N-terminal His-tag removed with TEV protease; also called monomeric Tau
T1 sequence (P10636 other isoform, or with tags, fused parts or gaps limits assumed): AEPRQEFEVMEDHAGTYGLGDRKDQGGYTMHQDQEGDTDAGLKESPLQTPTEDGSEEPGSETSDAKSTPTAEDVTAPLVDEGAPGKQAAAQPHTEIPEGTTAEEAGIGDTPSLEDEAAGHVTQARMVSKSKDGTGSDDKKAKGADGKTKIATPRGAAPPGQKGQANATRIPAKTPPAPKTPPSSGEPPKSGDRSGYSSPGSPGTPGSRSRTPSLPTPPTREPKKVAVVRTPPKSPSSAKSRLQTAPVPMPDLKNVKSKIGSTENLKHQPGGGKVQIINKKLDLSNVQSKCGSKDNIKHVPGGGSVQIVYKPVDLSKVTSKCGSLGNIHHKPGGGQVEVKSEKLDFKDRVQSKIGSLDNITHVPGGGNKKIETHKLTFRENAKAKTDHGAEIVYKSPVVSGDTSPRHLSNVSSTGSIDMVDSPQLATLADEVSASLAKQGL
PROCEDURE_TEXT: SPR, captured IgG, Tau monomer analyte, 1:1 model; fit-quality column: Yes
pKd: −log10 of the molar value.
Listed here: items and their measured pKd.
MEASURED_PROPERTY: pKd

BINDER	MEASURED_PROPERTY	TEST_RESULT
hu37D3-H9.v5.11 (antibody, V domains shown) VH: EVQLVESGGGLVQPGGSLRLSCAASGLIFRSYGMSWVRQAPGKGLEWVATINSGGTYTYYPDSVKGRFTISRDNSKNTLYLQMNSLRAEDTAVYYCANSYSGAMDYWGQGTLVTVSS VL: EDVLTQTPLSLPVTPGQPASISCRSSQSIVHSNGSTYFEWYLQKPGQSPQLLIYKVSNRFSGVPDRFSGSGSGTDFTLKISRVEAEDVGVYYCFQGSLVPWTFGQGTKVEIK	pKd	7.01
hu37D3-H9.v30.10 (antibody, V domains shown) VH: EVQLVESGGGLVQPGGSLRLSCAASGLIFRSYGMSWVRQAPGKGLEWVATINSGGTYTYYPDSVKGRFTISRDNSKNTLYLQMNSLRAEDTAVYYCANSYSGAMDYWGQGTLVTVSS VL: DDVLTQTPLSLPVTPGQPASISCRSSQSIVHSKGNTYFEWYLQKPGQSPQLLIYKVSNRFSGVPDRFSGSGSGTDFTLKISRVEAEDVGVYYCFQGSLVPWTFGQGTKVEIK	pKd	7.79
hu37D3.v28.F3 (antibody, V domains shown) VH: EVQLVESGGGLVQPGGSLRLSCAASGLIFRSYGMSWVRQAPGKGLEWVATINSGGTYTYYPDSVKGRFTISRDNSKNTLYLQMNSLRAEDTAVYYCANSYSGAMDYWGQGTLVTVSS VL: DDVLTQTPLSLPVTPGQPASISCRSSQSIVHTNANTYFEWYLQKPGQSPQLLIYKVSNRFSGVPDRFSGSGSGTDFTLKISRVEAEDVGVYYCFQGSLVPWTFGQGTKVEIK	pKd	8.02
